Source listed as patent US8178135B2.

- TEST DESCRIPTION: Blood concentrations after oral administration of Crude extract I to rats
- Assay type: in vivo, rat
- PARTICULARS: male, Crj:CD(SD) IGS, rat, in vivo, po, 0.05 g/kg, Crude extract I oral, rats (animals 3, 4), 2 h

{"MOLECULE": "CC[C@@]12C=CCN3CC[C@]4(C(=C(C(=O)OC)C1)Nc1cc5c(cc14)[C@H]1[C@@H](O5)[C@H](O)[C@]4(CC)CC(C(=O)OC)=C5Nc6c(cc(O)c(OC)c6OC)[C@@]56CCN1[C@H]46)[C@H]32 (stereo in doubt)", "concentration at 2 h [ng/mL]": 40}
